From: patent US7160888B2

# TESTED_SYSTEM: D2 receptor (Homo sapiens, UniProt P14416)
# Sequence (P14416 whole entry): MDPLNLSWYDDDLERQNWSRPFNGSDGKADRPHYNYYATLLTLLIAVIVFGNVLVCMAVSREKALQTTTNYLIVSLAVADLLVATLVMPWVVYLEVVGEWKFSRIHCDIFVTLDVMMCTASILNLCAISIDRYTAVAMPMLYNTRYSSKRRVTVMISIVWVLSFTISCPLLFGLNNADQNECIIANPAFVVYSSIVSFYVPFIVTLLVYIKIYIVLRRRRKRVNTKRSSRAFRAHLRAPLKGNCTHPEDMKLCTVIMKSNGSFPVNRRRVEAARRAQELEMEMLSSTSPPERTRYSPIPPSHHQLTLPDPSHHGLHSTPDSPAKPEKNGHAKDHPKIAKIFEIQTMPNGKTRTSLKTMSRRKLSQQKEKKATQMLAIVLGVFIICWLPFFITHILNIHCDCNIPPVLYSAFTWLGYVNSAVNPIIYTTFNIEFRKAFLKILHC
# METHOD: [3H]Thymidine uptake assay for D2 intrinsic activity
# Type: cell-based
# EXPERIMENTAL_CONTEXT: Table 1; test compound 1 μM; 1 μM Quinpirole = 100% intrinsic activity
Here the recorded Emax at 1 µM is given for each entry.

SMILES_STRING	Emax at 1 µM
O=C1CCc2ccc(CCCCCN3CCN(c4ccc(F)cc4Cl)CC3)nc2N1	10%
O=C1CCc2ccc(OCCCCN3CCN(c4cccc5cccc(F)c45)CC3)nc2N1	49%
O=C1NCc2ccc(OCCCCN3CCN(c4cccc5ccccc45)CC3)nc2N1	30%
O=c1ccc2ccc(OCCCCN3CCN(c4cccc5cccc(F)c45)CC3)nc2[nH]1	51%
CC1(C)CC(=O)Nc2nc(OCCCCN3CCN(c4cccc5c4CCC5)CC3)ccc21	39%
O=C1CCc2cnc(OCCCCN3CCN(c4cccc(Cl)c4Cl)CC3)c(Cl)c2N1	19%
COc1ccc2cccc(N3CCN(CCCCOc4nc(C)c5ccc(=O)n(C)c5n4)CC3)c2c1	33%
Cn1c(=O)ccc2ccc(OCCCCN3CCN(c4cccc5ccccc45)CC3)nc21	17%

###

Here the recorded Emax at 1 µM is given for each entry.
# TESTED_SYSTEM: D2 receptor (Homo sapiens, UniProt P14416)
# METHOD: [3H]Thymidine uptake assay for D2 intrinsic activity
# Assay type: cell-based
# EXPERIMENTAL_CONTEXT: Table 1; test compound 1 μM; 1 μM Quinpirole = 100% intrinsic activity

COMPOUND	Emax at 1 µM / %
O=C1CCc2ccc(OCCCCN3CCN(c4cccc(C5CC5)n4)CC3)nc2N1 [Example A46]	41
Cc1cc(=O)[nH]c2nc(OCCCCN3CCN(c4cccc(Cl)c4Cl)CC3)ccc12 [Example D1]	31
O=C1CCc2cnc(OCCCCN3CCN(c4cccc5ccccc45)CC3)c(Cl)c2N1 [Example I10]	21
O=C1CCCc2c1cccc2N1CCN(CCCCOc2ccc3ccc(=O)[nH]c3n2)CC1 [Example B42]	37
O=c1ccc2ccc(OCCCCN3CCN(c4cccc(F)c4Cl)CC3)nc2[nH]1 [Example B28]	31
CC(=O)c1c(Cl)cccc1N1CCN(CCCCOc2ccc3ccc(=O)[nH]c3n2)CC1 [Example B3]	8
CC(=O)c1cccc(N2CCN(CCCCOc3ccc4ccc(=O)[nH]c4n3)CC2)c1Cl [Example B6]	16
O=C1CCc2cc(Br)c(OCCCCN3CCN(c4cccc5ccccc45)CC3)nc2N1 [Example E8]	26
Cc1cccc(N2CCN(CCCCOc3ccc4c(n3)NC(=O)CC4)CC2)n1 [Example A44]	51
Cc1c(C)c2ccc(OCCCCN3CCN(c4cccc(Cl)c4Cl)CC3)nc2[nH]c1=O [Example D7]	15
O=c1ccc2cnc(OCCCCN3CCN(c4cccc5c4CCCC5)CC3)cc2[nH]1 [Example I14]	24
CC(C)Oc1ccccc1N1CCN(CCCCOc2ccc3c(n2)NC(=O)CC3(C)C)CC1 [Example D25]	31
CC(=O)c1ccc(N2CCN(CCCCOc3ccc4ccc(=O)[nH]c4n3)CC2)c2ccccc12 [Example B65]	10
O=c1ccc2ccc(OCCCCN3CCN(c4cccc5cc(Cl)ccc45)CC3)nc2[nH]1 [Example B57]	21
CCc1ccccc1N1CCN(CCCCOc2ccc3c(n2)NC(=O)CC3(C)C)CC1 [Example D23]	33
O=C1CCc2cnc(OCCCCN3CCN(c4cccc(Cl)c4Cl)CC3)c(Br)c2N1 [Example I8]	25
CC(CCCN1CCN(c2cccc3ccccc23)CC1)Oc1ccc2c(n1)NC(=O)CC2 (centres unmarked) [Example C6]	44
O=c1ccc2ccc(OCCCCN3CCN(c4cccc5c4CCCC5(F)F)CC3)nc2[nH]1 [Example B43]	18
O=C1CCc2ccc(OCCCCN3CCN(c4cccc5c(Cl)cccc45)CC3)nc2N1 [Example A75]	36
COc1ccc2cccc(N3CCN(CCCCOc4ccc5ccc(=O)[nH]c5n4)CC3)c2c1 [Example B60]	28
O=C1CCc2ccc(OCCCCN3CCN(c4ccc(F)cc4F)CC3)nc2N1 [Example A41]	28
O=C1CCc2ccc(CCCCCN3CCN(c4cccc5ccccc45)CC3)nc2N1 [Example C13]	14
COc1ccc2cccc(N3CCN(CCCCOc4nc(C)c5ccc(=O)[nH]c5n4)CC3)c2c1 [Example H11]	23
O=c1ccc2cnc(OCCCCN3CCN(c4cccc5ccc(F)cc45)CC3)cc2[nH]1 [Example I17]	32
O=C1CCc2ccc(OCCCN3CCN(c4cccc5ccccc45)CC3)nc2N1 [Example C3]	22
CC(C)COc1ccccc1N1CCN(CCCCOc2ccc3ccc(=O)[nH]c3n2)CC1 [Example B11]	31
O=c1ccc2ccc(OCCCCN3CCN(c4cccc5ccc(Cl)cc45)CC3)nc2[nH]1 [Example B56]	28
O=C1CCc2cc(F)c(OCCCCN3CCN(c4cccc5ccccc45)CC3)nc2N1 [Example E4]	38
N#Cc1ccc2cccc(N3CCN(CCCCOc4ccc5c(n4)NC(=O)CC5)CC3)c2c1 [Example A83]	36
CN1Cc2ccc(OCCCCN3CCN(c4cccc5ccccc45)CC3)nc2NC1=O [Example F8]	15
O=C1CCc2cnc(CCCCCN3CCN(c4cccc(Cl)c4Cl)CC3)cc2N1 [Example I1]	17
O=C1CCc2cccc(N3CCN(CCCCOc4ccc5ccc(=O)[nH]c5n4)CC3)c21 [Example B44]	27

###

# TESTED_SYSTEM: D2 receptor (Homo sapiens)
# METHOD: [3H]Thymidine uptake assay for D2 intrinsic activity
# Assay type: cell-based
# EXPERIMENTAL_CONTEXT: Table 1; test compound 1 μM; 1 μM Quinpirole = 100% intrinsic activity
Here the recorded Emax at 1 µM is given for each entry.
EXPERIMENTAL_ENDPOINT: Emax at 1 µM (%)

COMPOUND	EXPERIMENTAL_ENDPOINT	READOUT_NUMBER
O=c1ccc2cnc(OCCCCN3CCN(c4cccc5ccccc45)CC3)cc2[nH]1 [Example I16]	Emax at 1 µM	27
COc1cccc(N2CCN(CCCCOc3ccc4ccc(=O)[nH]c4n3)CC2)c1C [Example B27]	Emax at 1 µM	47
O=c1ccc2ccc(OCCCN3CCN(c4cccc(Cl)c4Cl)CC3)nc2[nH]1 [Example C1]	Emax at 1 µM	43
CC(C)Oc1ccccc1N1CCN(CCCCOc2ncc3ccc(=O)[nH]c3n2)CC1 [Example H2]	Emax at 1 µM	22
O=c1ccc2ccc(OCCCCN3CCN(c4cccc5c4CCCC5)CC3)nc2[nH]1 [Example B33]	Emax at 1 µM	26
CC1(C)OC(=O)Nc2cc(CCCCCN3CCN(c4cccc(Cl)c4Cl)CC3)ncc21 [Example I19]	Emax at 1 µM	22
O=c1ccc2ccc(OCCCCN3CCN(c4ccccc4-c4ccccc4)CC3)nc2[nH]1 [Example B26]	Emax at 1 µM	23
O=c1ccc2ccc(OCCCCN3CCN(c4cccc(C5CC5)n4)CC3)nc2[nH]1 [Example B29]	Emax at 1 µM	32

###

# TESTED_SYSTEM: D2 receptor (Homo sapiens)
# METHOD: [3H]Thymidine uptake assay for D2 intrinsic activity
# Assay type: cell-based
# EXPERIMENTAL_CONTEXT: Table 2; test compound 1 μM; 1 μM Quinpirole = 100% intrinsic activity
Here the recorded Emax at 1 µM is given for each entry.

COMPOUND	DISPLAY_UNIT	Emax at 1 µM
O=c1ccc2ccc(OCCCCN3CCN(c4cccc5nsnc45)CC3)nc2[nH]1 [Example B40′]	%	49
O=c1ccc2cnc(OCCCCN3CCN(c4cccc5c4OCCCO5)CC3)nc2[nH]1 [Example G5′]	%	7
CC1(C)COc2c(cccc2N2CCN(CCCCOc3ccc4c(n3)NC(=O)CC4)CC2)C1=O [Example A21′]	%	24
CC1(C)CC(=O)Nc2nc(OCCCCN3CCN(c4cccc5c4NC(=O)CC5)CC3)ccc21 [Example C3′]	%	19
CC1(C)CCc2cccc(N3CCN(CCCCOc4ncc5ccc(=O)[nH]c5n4)CC3)c2O1 [Example G6′]	%	17
O=C1CCc2cc(F)c(OCCCCN3CCN(c4cccc5cnccc45)CC3)nc2N1 [Example D2′]	%	40
O=c1ccc2ccc(OCCCCN3CCN(c4cccc5c4OC4(C=C5)CCCC4)CC3)nc2[nH]1 [Example B6′]	%	33
CC(=O)N1CCCc2c(N3CCN(CCCCOc4ccc5ccc(=O)[nH]c5n4)CC3)cccc21 [Example B27′]	%	34
Cc1ccc2cccc(N3CCN(CCCCOc4ccc5c(n4)NC(=O)CC5)CC3)c2n1 [Example A40′]	%	30
Cc1nc(OCCCCN2CCN(c3cccc4c3OCC4)CC2)nc2[nH]c(=O)ccc12 [Example G11′]	%	39
O=c1ccc2ccc(OCCCCN3CCN(c4cccc5c4OCC5)CC3)nc2[nH]1 [Example B8′]	%	21
Cc1nc(OCCCCN2CCN(c3cccc4ccoc34)CC2)nc2[nH]c(=O)ccc12 [Example G12′]	%	36

###

# TESTED_SYSTEM: D2 receptor (Homo sapiens)
# METHOD: [3H]Thymidine uptake assay for D2 intrinsic activity
# Format: cell-based
# EXPERIMENTAL_CONTEXT: Table 2; test compound 1 μM; 1 μM Quinpirole = 100% intrinsic activity
Rule: measured Emax at 1 µM below 30% gets True; anything equal to or greater than 30% gets False.

COMPOUND	CAT
CN1CCCc2c1cccc2N1CCN(CCCCOc2ccc3ccc(=O)[nH]c3n2)CC1	False
O=c1ccc2cnc(OCCCCN3CCN(c4cccc5c4OCCC5)CC3)nc2[nH]1	True
O=C1NCc2ccc(OCCCCN3CCN(c4cccc5c4OCCC5)CC3)nc2N1 [Example E2′]	True
O=c1ccc2ccc(OCCCCN3CCN(c4cccc5ccoc45)CC3)nc2[nH]1	True
